IC50 for assorted compounds
- TESTED_ON: p70S6K (Homo sapiens, UniProt P23443, T412E)
- Construct: human p70S6 kinase domain residues 1-421, containing a T412E mutation; made in house
- Sequence (P23443 1-421 T412E): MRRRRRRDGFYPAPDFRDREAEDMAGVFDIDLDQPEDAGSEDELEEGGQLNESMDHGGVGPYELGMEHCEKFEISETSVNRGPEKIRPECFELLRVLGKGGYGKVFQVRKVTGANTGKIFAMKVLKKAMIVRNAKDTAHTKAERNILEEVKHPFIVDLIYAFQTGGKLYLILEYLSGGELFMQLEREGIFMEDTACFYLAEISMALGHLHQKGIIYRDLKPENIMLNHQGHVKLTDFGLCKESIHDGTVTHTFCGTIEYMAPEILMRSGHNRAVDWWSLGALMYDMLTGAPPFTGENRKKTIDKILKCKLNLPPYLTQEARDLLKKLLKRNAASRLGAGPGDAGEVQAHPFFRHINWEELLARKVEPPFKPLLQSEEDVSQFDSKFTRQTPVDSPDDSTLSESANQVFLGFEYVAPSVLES
- EXPERIMENT: p70S6 Kinase Assay (Luciferase-Coupled Chemiluminescent Kinase assay, LCCA)
- Assay type: biochemical
- DETAILS: human p70S6 kinase domain residues 1-421, T412E; 5 μM ATP; read-out: p70S6K IC50

q: Quick check: IC50 of "Nc1nc(Cl)cc(SCC(=O)Nc2cccc(C(F)(F)F)c2)n1" ?
a: 50 to 500 nM

q: Also COc1nc(N)nc(N[C@@H](C)C(=O)Nc2cccc(C(F)(F)F)c2)c1C#N [Example 78] , if possible.
a: > 2000 nM

q: Also COc1nc(N)nc(N[C@@H](CN2CCOCC2)C(=O)Nc2cccc(C(F)(F)F)c2)c1C#N [Example 192] , if possible.
a: > 2000 nM

* * *

- TESTED_ON: p70S6K (Homo sapiens, UniProt P23443, T412E)
- Construct: human p70S6 kinase domain residues 1-421, containing a T412E mutation; made in house
- EXPERIMENT: p70S6 Kinase Assay (Luciferase-Coupled Chemiluminescent Kinase assay, LCCA)
- Type: biochemical
- DETAILS: human p70S6 kinase domain residues 1-421, T412E; 5 μM ATP; read-out: p70S6K IC50
EXPERIMENTAL_ENDPOINT: IC50

Below: 3 compounds and their reported IC50.
CSc1nc(N)nc(SCC(=O)Nc2ccc(Cl)c(C(F)(F)F)c2)c1C#N [Example 34] = < 50 nM
CSc1nc(N)nc(N[C@@H](CCCNS(C)(=O)=O)C(=O)Nc2cccc(C(F)(F)F)c2)c1C#N [Example 198] = > 2000 nM
CCOc1nc(N)nc(N[C@@H](C)C(=O)Nc2cc(C(=O)NCCN(C)C)cc(C(F)(F)F)c2)c1C#N [Example 160] = > 2000 nM

q: Any idea what IC50 came out for CCOc1nc(N)nc(N[C@@H](CCC(N)=O)C(=O)Nc2cccc(C(F)(F)F)c2)c1C#N [Example 175] on p70S6K (Homo sapiens, UniProt P23443, T412E)?
a: > 2000 nM

* * *

- TESTED_ON: p70S6K (Homo sapiens, UniProt P23443, T412E)
- Construct: human p70S6 kinase domain residues 1-421, containing a T412E mutation; made in house
- EXPERIMENT: p70S6 Kinase Assay (Luciferase-Coupled Chemiluminescent Kinase assay, LCCA)
- Type: biochemical
- DETAILS: human p70S6 kinase domain residues 1-421, T412E; 5 μM ATP; read-out: p70S6K IC50
pIC50: −log10 of the molar value.
pIC50 for assorted molecules

Below: 3 molecules and their reported pIC50.
CSc1nc(N)nc(N2CCC[C@H]2C(=O)Nc2cccc(C(F)(F)F)c2)c1C#N [Example 67] = 5.70 to 6.30
CSc1nc(N)nc(SCC(=O)Nc2cccc(C(F)(F)F)c2)c1C#N [Example 21] = > 7.30
CSc1nc(N)nc(N[C@@H](CN2CCOCC2)C(=O)Nc2cccc(C(F)(F)F)c2)c1C#N [Example 191] = < 5.70

q: Quick check: pIC50 of CCOc1nc(N)nc(N[C@@H](CCCN)C(=O)Nc2cccc(C(F)(F)F)c2)c1C#N [Example 129] ?
a: < 5.70

* * *

- TESTED_ON: p70S6K (Homo sapiens, UniProt P23443, T412E)
- Construct: human p70S6 kinase domain residues 1-421, containing a T412E mutation; made in house
- EXPERIMENT: p70S6 Kinase Assay (Luciferase-Coupled Chemiluminescent Kinase assay, LCCA)
- Type: biochemical
- DETAILS: human p70S6 kinase domain residues 1-421, T412E; 5 μM ATP; read-out: p70S6K IC50
pIC50: −log10 of the molar value.
EXPERIMENTAL_ENDPOINT: pIC50

CSc1nc(N)nc(N[C@@H](CCC(=O)OCc2ccccc2)C(=O)Nc2cccc(C(F)(F)F)c2)c1C#N = < 5.70

q: Quick check: pIC50 of "CSc1nc(N)nc(SCc2nc3ccc(C(F)(F)F)cc3[nH]2)c1C#N" ?
a: 5.70 to 6.30

* * *

- TESTED_ON: p70S6K (Homo sapiens, UniProt P23443, T412E)
- Construct: human p70S6 kinase domain residues 1-421, containing a T412E mutation; made in house
- EXPERIMENT: p70S6 Kinase Assay (Luciferase-Coupled Chemiluminescent Kinase assay, LCCA)
- Format: biochemical
- DETAILS: human p70S6 kinase domain residues 1-421, T412E; 5 μM ATP; read-out: p70S6K IC50
EXPERIMENTAL_ENDPOINT: IC50

Below: 10 molecules and their reported IC50.
COc1ccc(OC)c(C(=O)CSc2nc(N)nc(SC)c2C#N)c1 = < 50 nM
CCCOc1nc(N)nc(N[C@@H](C)C(=O)Nc2cccc(C(F)(F)F)c2)c1C#N = 50 to 500 nM
CSc1nc(N)nc(N[C@@H](CCCN)C(=O)Nc2cccc(C(F)(F)F)c2)c1C#N = > 2000 nM
CCOc1nc(N)nc(N[C@@H](CCC[N+](C)(C)C)C(=O)Nc2cccc(C(F)(F)F)c2)c1C#N = > 2000 nM
CSc1nc(NC(C)=O)nc(N(C(C)=O)[C@@H](CCCNC(C)=O)C(=O)Nc2cccc(C(F)(F)F)c2)c1C#N = > 2000 nM
CSc1nc(N)nc(N[C@@H](C)c2nc3ccc(C(F)(F)F)cc3[nH]2)c1C#N = > 2000 nM
CSc1nc(N)nc(NCC(=O)Nc2cccc(C(F)(F)F)c2)c1/C=N/N = 500 to 2000 nM
Nc1nc(SCC(=O)Nc2cccc(C(F)(F)F)c2)c(C=O)c(Sc2ccccc2)n1 = 50 to 500 nM
CSc1nc(N(C)C)nc(NCC(=O)Nc2cccc(C(F)(F)F)c2)c1C#N = > 2000 nM
CCOc1nc(N)nc(N[C@@H](COC)C(=O)Nc2cccc(C(F)(F)F)c2)c1C#N = > 2000 nM

q: Quick check: IC50 of "Nc1cc(SCC(=O)Nc2cccc(C(F)(F)F)c2)nc(N)n1" ?
a: < 50 nM

q: Also "CSc1nc(N)nc(OCC(=O)Nc2cccc(C(F)(F)F)c2)c1CO" , if possible.
a: 500 to 2000 nM

q: Also "CSc1nc(N)nc(N2CCC[C@@H]2C(=O)Nc2cccc(C(F)(F)F)c2)c1C#N" , if possible.
a: > 2000 nM

q: Also "CSc1nc(N)nc(N[C@@H](CN(C)C)C(=O)Nc2cccc(C(F)(F)F)c2)c1C#N" , if possible.
a: 50 to 500 nM

q: Also "CSc1nc(N)nc(N[C@@H](CCCCNC(=O)OC(C)(C)C)C(=O)Nc2cccc(C(F)(F)F)c2)c1C#N" , if possible.
a: > 2000 nM

q: Also "C[C@H](Nc1nc(N)nc(OCCN(C)C)c1C#N)C(=O)Nc1cccc(C(F)(F)F)c1" , if possible.
a: > 2000 nM

q: Also "CSc1nc(N)nc(SCC(=O)Nc2nc(C)cs2)c1C#N" , if possible.
a: < 50 nM

q: Also "Cc1nc2oc(C(=O)Nc3cccc(C(F)(F)F)c3)c(N)c2c(C)c1N" , if possible.
a: > 2000 nM

* * *

- TESTED_ON: p70S6K (Homo sapiens, UniProt P23443, T412E)
- Construct: human p70S6 kinase domain residues 1-421, containing a T412E mutation; made in house
- EXPERIMENT: p70S6 Kinase Assay (Luciferase-Coupled Chemiluminescent Kinase assay, LCCA)
- Assay type: biochemical
- DETAILS: human p70S6 kinase domain residues 1-421, T412E; 5 μM ATP; read-out: p70S6K IC50
pIC50: −log10 of the molar value.
pIC50 for assorted compounds

Below: 2 compounds and their reported pIC50.
COC(=O)c1cc(NC(=O)[C@H](C)Nc2nc(N)nc(OC)c2C#N)cc(C(F)(F)F)c1 = < 5.70
CSc1nc(N)nc(SCC(=O)Nc2ccc(F)c(C(F)(F)F)c2)c1C#N = > 7.30

q: Quick check: pIC50 of "Nc1nc(NCC(=O)Nc2cccc(C(F)(F)F)c2)cc(N2CCOCC2)n1" ?
a: > 7.30

q: Also "CNc1nc(N)nc(SCC(=O)Nc2cccc(C(F)(F)F)c2)c1C=O" , if possible.
a: 6.30 to 7.30

q: Also "CSc1nc(N)nc(N[C@@H](CCCNC(N)=O)C(=O)Nc2cccc(C(F)(F)F)c2)c1C#N" , if possible.
a: 5.70 to 6.30

q: Also "CNc1nc(N)nc(SCC(=O)Nc2cccc(C(F)(F)F)c2)c1C#N" , if possible.
a: 5.70 to 6.30
